Biological target: T1, PUF4 RNA-binding domain (Saccharomyces cerevisiae, UniProt P25339 537-888)
T1 sequence: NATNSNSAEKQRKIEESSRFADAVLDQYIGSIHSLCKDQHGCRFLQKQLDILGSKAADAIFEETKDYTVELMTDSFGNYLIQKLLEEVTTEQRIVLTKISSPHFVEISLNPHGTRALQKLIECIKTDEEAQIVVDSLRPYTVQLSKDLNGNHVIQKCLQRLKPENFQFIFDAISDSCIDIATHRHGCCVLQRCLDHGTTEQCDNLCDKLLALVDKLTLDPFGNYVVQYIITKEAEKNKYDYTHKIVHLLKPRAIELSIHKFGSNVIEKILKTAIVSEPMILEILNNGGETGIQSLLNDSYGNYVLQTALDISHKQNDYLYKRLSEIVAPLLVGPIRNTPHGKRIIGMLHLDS
Assay: Mg; RNA-MaP; 20 mM Na-HEPES pH 7.4, 30 mM KOAc, 0.75 mM MgCl2, 0.1% Tween-20, 5% glycerol, 0.1 mg/mL BSA, 2 mM DTT; 25 C; 0.0125-409.6 nM protein
Conditions: tags: N-His6-TEV cleaved; C-SNAP kept, Cy3B-labelled; label: tethered on chip by stalled RNA polymerase
hey, just use fulfilled if measured Kd is less than 30 nM, otherwise not fulfilled

INPUT: Is the reported Kd for Id_i_S2_P3E.5_K3.1_C3.3_[T-3A]_[C-2T]_[T-1C]_H3.1_A3.1_F3.1_T3.2 (ssRNA) RNA: UUUGAUUAAUAUGAUAUCGUUCUUUCUAUCUGUAUAUAUAUUCUUUCUCGAUAUCAUAUUAAUCUUU strictly below 30 nM?
OUTPUT: fulfilled

INPUT: Is the reported Kd for UCUCUUUGUAUGGCUGUCUCUU (ssRNA) [Ic_S1_P5E.1_K5.1_C5.1_H5.1_A5.1_[T6G]_[A7G]_F5.1_[T8C]_[A10G]_T5.1] strictly below 30 nM?
OUTPUT: not fulfilled

INPUT: Is the reported Kd for UCUCUUUGUAUUUUCUUCUCUU (ssRNA) [Ic_S1_P5E.1_K5.1_C5.1_H5.1_A5.1_[A7T]_F5.1_[T9C]_[A10T]_T5.1] strictly below 30 nM?
OUTPUT: not fulfilled

INPUT: Is the reported Kd for Ic_S2_P3E.1_K3.1_C3.1_H3.1_A3.1_[T5C]_[A6C]_F3.1_[T7C]_[A8G]_T3.1 (ssRNA) RNA: UUUGAUUAAUAUGAUAUCGUUCUUUCUUGUACCCGUUCUUUCUCGAUAUCAUAUUAAUCUUU strictly below 30 nM?
OUTPUT: not fulfilled

INPUT: Is the reported Kd for UCUCUUUGUACGAUUAUCUCUU (ssRNA) [Ib_S1_P5E.1_K5.1_C5.1_H5.1_A5.1_[T5C]_[T6G]_F5.1_T5.1] strictly below 30 nM?
OUTPUT: fulfilled

INPUT: Is the reported Kd for UCUCUUUGUAUUAUUCCUCUAUCUCUU (ssRNA) [Ie_S1_P5E.1_K5.1_C5.1_H5.1_A5.1_F5.1_[+9CCTCT]_T5.1] strictly below 30 nM?
OUTPUT: fulfilled
